The reader will find pIC50 measurements below, all made with UniProtKB P0DTD1.
As a rule, pIC50 stands for the negative log10 of the concentration, concentration in M.

GET /values?readout=pIC50&item= `CCOC(=O)c1nc(S(C)(=O)=O)ncc1Cl`
5.98

Next record, please: `NS(=O)(=O)c1ccc(N2CCC(Nc3ccc(F)cc3)CC2)cc1`
4.41

Now consider `O=C(CCl)N1CCN(S(=O)(=O)c2ccsc2)CC1` and answer again.
6.31

Same for `O=C(Nc1ccc(N(Cc2ccsc2)C(=O)Cn2nnc3ccccc32)cc1)C1CC1`
4.55

Next compound up: `COc1ccccc1OCCNC(=O)c1cc(=O)[nH]c2cccc(C)c12`
5.58

Now the same for C=CC(=O)N(c1ccc(C(C)(C)C)cc1)C(C(=O)NCCc1cccc(F)c1)c1cncc(O)c1 (stereo unspecified)
4.58

Try this compound too: O=C(Nc1c[nH]c(=O)c2ccccc12)C1CCOc2ccc(Cl)cc21 (stereo unspecified)
4.08

# repeat for `CCN(c1ccccc1)S(=O)(=O)c1ccc(OC)c(NC(=O)CCl)c1`
5.16

Try `CCC(=O)Nc1ccc(N(Cc2ccccc2)C(=O)Nn2nnc3ccccc32)cc1` next.
5.43

What do you have for `Cc1ccncc1NC(=O)Cc1cc(Cl)cc(OC2COC2)c1` ?
4.82

What about this compound? `O=C(c1cc(=O)cc[nH]1)N1CCN(c2cccc(Cl)c2)CC1`
4.23

----------
Hi there, I'd appreciate the recorded log10(IC50) for every entry that follows.
- system_name: SARS-CoV-2 Main Protease (SARS-CoV-2) (UniProt P0DTD1)
Hey, these are logged values: log10 of IC50, µM being the unit before logging.

Name the reported log10(IC50) value associated with the compound `CSC1=C(C#N)C2(CCCCC2)C(C#N)=C(NC(=O)CCl)N1`
0.18

Do the same for C=CC(=O)N(c1ccc(C(C)(C)C)cc1)C(C(=O)NCc1ccc(F)cc1)c1cccnc1 (stereo unspecified) please
1.02

And O=C(Nc1cncc2ccccc12)C1COc2c(Cl)cccc21 (stereo unspecified) ?
0.73

Also `Cc1ccncc1NC(=O)Cc1cccc(C#N)c1` ?
1.64

Next up: `CNc1ccc(N(C(=O)Cn2nnc3ccccc32)c2cccc(Cl)c2)cc1`
1.03

Same question for O=C(O)[C@@H](c1ccccc1)N1Cc2ccccc2C1=O (stereo in doubt) please.
0.06

Param item: `Cc1ccncc1NC(=O)Cc1cccc(Br)c1`
1.20

// same read-out, input: `CC(C)(C)c1ccc(-c2nnc(Sc3cnc([N+](=O)[O-])s3)o2)cc1`
-0.79

# iterate: Cc1ccncc1NC(=O)Cc1cc(Cl)cc(NC2CCCC2O)c1 (stereo unspecified)
1.59

Now give it for `COc1ccc(-c2cc(COc3cc(Cl)cc(CC(=O)Nc4cnccc4C)c3)on2)cc1` too.
1.14

Thanks! And O=C(Nc1cnccc1CO)[C@@H]1COc2ccc(Cl)cc21 (stereo in doubt) ?
1.26

----------
Please go through the items and note down their inhibition.
- system_name: SARS-CoV-2 Main Protease (SARS-CoV-2) (UniProt P0DTD1)
- reported_conditions: 50.0 µM
Output spec: scalar in %, unitless text.

# input compound: `Cc1ccc(C)c(S(=O)(=O)N2CCN(C(=O)CCl)CC2)c1` ; wanted: its inhibition
101

Do the same for C=CC(=O)N(c1ccc(C(F)(F)F)cc1)C(C(=O)Nc1ccc(OC)cc1C)c1cccnc1 (centres undefined) please
25.4

Quick one: `COc1ccc2nc(NC(=O)Nc3cn(CC(C)C)c(=O)c4ccccc34)sc2c1`
17.6

Next up: Cc1cccc(NC(=O)C(C#N)C(=O)C2CC2)c1 (centres undefined)
5.88

And C=CC(=O)N(c1ccc(C(C)(C)C)cc1)C(C(=O)NC(C)C)c1cccnc1 (centres undefined) ?
0.416

What about `O=C1Nc2cc(N3CCCC3)ccc2C1=O` ?
37.3

Now try O=C(CCl)NC(CO)c1cccc(Cl)c1 (centres undefined) .
51.6

Check `Cc1ccncc1NC(=O)Nc1cccc(C#N)c1` too.
44.3

Same question for CNCCN(C)C(=O)C(=O)N1Cc2ccccc2C(c2ccccc2)C1 (centres undefined) please.
-2.83

Same question, C=CC(=O)N(C1CCOC1=O)C(C(=O)NC(C)(C)C)c1cccnc1 (centres undefined) this time
-7.63

Then `COC(=O)c1c(C)n(S(C)(=O)=O)c2ccc(N(C(=O)c3ccco3)S(C)(=O)=O)cc12` ?
97.8

Note, next up: `Cc1ccncc1NC(=O)CCOC1CC1`
22

Next: `O=C(CCl)Nc1cccc(N2CCCC2=O)c1`
51.4

Please do the same for `O=C(Nc1cccnc1)c1cc(Cl)ccc1-c1ccccc1` as well.
60.4

Also `O=C(c1cc(=O)[nH]c2ccc(Cl)cc12)N1CCN(S(=O)(=O)c2ccccc2)CC1` ?
23.9

Please do the same for `Cc1ccncc1NC(=O)Cc1cncc(Cl)c1` as well.
46

What do we get for `O=[N+]([O-])c1cnc(Sc2nccc(-c3cccnc3)n2)s1` ?
37.5

Input CN1CCC(C(=O)NC2CCCCC2NC(=O)c2ccccc2)CC1 (centres undefined)
-15.4

What do we get for CCC(=O)Nc1cccc(OC2CC(=O)N2)c1 (centres undefined) ?
-6.23

Could you do the same for `Cc1nnn(C)c1NC(=O)Cc1cccc(Cl)c1` , please?
-12.3

What about `O=S(=O)(Cc1noc(C2CC2)n1)Nc1cccnc1` ?
-1.33

Lookup `NS(=O)(=O)c1ccc(N2CCC(c3nc4ccccc4s3)CC2)cc1`
-12

One more compound: `O=C(CSC1=NCCS1)c1cc(Cl)ccc1Cl`
2.86

Same lookup for C=CC(=O)N(c1cc(C(C)(C)C)on1)C(C(=O)Nc1ccc(OC)cc1C)c1cccnc1 (centres undefined) , please.
23.4
